Assay: Inhibition of P-gp (unknown origin) expressed in human LCC6MDR cells assessed as reversal of paclitaxel resistance after 5 days by MTS/PMS assay
Catalogue of compounds with associated EC50
Enter your answer as a number in µM; do not include the unit.

structure.notation | test.result
Cc1ccc2oc(-c3ccc(OCCCCc4cn(CCOCCOCCOc5ccc(-c6oc7ccccc7c(=O)c6OCc6ccccc6)cc5)nn4)cc3)cc(=O)c2c1 | 0.422
Cc1ccc2oc(-c3ccc(OCCCCc4cn(CCOCCOc5ccc(-c6cc(=O)c7ccccc7o6)cc5)nn4)cc3)cc(=O)c2c1 | 0.37

The recorded EC50 for `O=c1cc(-c2ccccc2)oc2cc(OCCCc3cn(CCOCCOc4ccc5c(=O)cc(-c6ccccc6)oc5c4)nn3)ccc12` is 0.49

---

Test: Inhibition of P-gp (unknown origin) expressed in human LCC6MDR cells assessed as reversal of paclitaxel resistance after 5 days by MTS/PMS assay
measured.property: EC50 (nM)
Only the number, expressed in nM, is required.

// below: answered molecules
structure.notation | EC50 / nM
O=c1cc(-c2ccc(OCCCc3cn(CCOCCOCCOc4ccc5c(=O)cc(-c6ccccc6)oc5c4)nn3)cc2)oc2cc(F)ccc12 | 89
O=c1cc(-c2ccc(OCCOCCOCCn3cc(CCCOc4ccc5c(=O)cc(-c6ccccc6)oc5c4)nn3)cc2)oc2ccccc12 | 384
Cc1ccc2oc(-c3ccc(OCCOCCOCCn4cc(CCCOc5ccc6c(=O)cc(-c7ccccc7)oc6c5)nn4)cc3)cc(=O)c2c1 | 350

Record summary for `O=c1cc(-c2ccccc2)oc2cc(OCCCCc3cn(CCOCCOc4ccc5c(=O)cc(-c6ccccc6)oc5c4)nn3)ccc12` : reported EC50 = 365

---

Experiment: Inhibition of BCRP (unknown origin) transfected in HEK293/R2 cells assessed as reversal of topotecan resistance after 5 days by MTS/PMS assay
pEC50: −log10 of the molar value.
Outcome: yes for pEC50 of at least 7; no for anything lower.

Below are worked cases with known answers.
structure.notation | class.assignment
O=c1cc(-c2ccccc2)oc2cc(OCCOCc3cn(CCOCCOCCOc4ccc(-c5cc(=O)c6cc(F)ccc6o5)cc4)nn3)ccc12 | no
Cc1ccc2oc(-c3ccc(OCCCCc4cn(CCOCCOCCOc5ccc(-c6cc(=O)c7cc(C)ccc7o6)cc5)nn4)cc3)cc(=O)c2c1 | yes
O=c1cc(-c2ccccc2)oc2cc(OCCCCc3cn(CCOCCOc4ccc5c(=O)cc(-c6ccccc6)oc5c4)nn3)ccc12 | yes
Cc1ccc2oc(-c3ccc(OCCOCCOCCn4cc(CCCOc5ccc(-c6cc(=O)c7ccc(F)cc7o6)cc5)nn4)cc3)cc(=O)c2c1 | yes
COC(=O)c1cccc(COc2c(-c3ccc(OCCOCCn4cc(CN(Cc5cn(CCOCCOc6ccc(-c7oc8ccccc8c(=O)c7OCc7cccc(C(=O)OC)c7)cc6)nn5)c5ccccc5)nn4)cc3)oc3ccccc3c2=O)c1 | yes
COC(=O)c1cccc(COc2c(-c3ccc(OCCOCCn4cc(COCc5cn(CCOCCOc6ccc(-c7oc8ccccc8c(=O)c7OCc7cccc(C(=O)OC)c7)cc6)nn5)nn4)cc3)oc3ccccc3c2=O)c1 | yes
O=c1cc(-c2ccccc2)oc2cc(OCCN(Cc3ccccc3)Cc3cn(CCOc4ccc5c(=O)cc(-c6ccccc6)oc5c4)nn3)ccc12 | no

stdin: Record `COC(=O)c1cccc(COc2c(-c3ccc(OCCOCCOCCn4cc(CN(Cc5ccccc5)Cc5cn(CCOCCOCCOc6ccc(-c7oc8ccccc8c(=O)c7OCc7cccc(C(=O)OC)c7)cc6)nn5)nn4)cc3)oc3ccccc3c2=O)c1` ; criterion: pEC50 no lower than 7. Met?
stdout: yes

---

Test: Inhibition of BCRP in human MCF7/MX100 cells assessed as reversal of topotecan resistance after 5 days by MTS/PMS assay
Just a reminder that ties go to no (0): only EC50 strictly below 80 nM counts as yes (1).

structure.notation | class.assignment
O=c1cc(-c2ccccc2)oc2cc(OCCCc3cn(CCOCCOc4ccc5c(=O)cc(-c6ccccc6)oc5c4)nn3)ccc12 | yes (1)
Cc1ccc2oc(-c3ccc(OCCOCCOCCn4cc(CN(CCOc5ccc6c(=O)cc(-c7ccccc7)oc6c5)Cc5ccccc5)nn4)cc3)cc(=O)c2c1 | yes (1)
O=c1cc(-c2ccccc2)oc2cc(OCCCc3cn(CCOCCOCCOc4ccc5c(=O)cc(-c6ccccc6)oc5c4)nn3)ccc12 | no (0)
O=c1cc(-c2ccccc2)oc2cc(OCCCCc3cn(CCOCCOc4ccc(-c5cc(=O)c6cc(F)ccc6o5)cc4)nn3)ccc12 | yes (1)
O=c1cc(-c2ccccc2)oc2cc(OCCCCc3cn(CCOCCOCCOc4ccc5c(=O)cc(-c6ccccc6)oc5c4)nn3)ccc12 | no (0)

stdin: Record `O=c1cc(-c2ccccc2)oc2cc(OCCOCc3cn(CCOCCOCCOc4ccc(-c5oc6ccccc6c(=O)c5OCc5ccccc5)cc4)nn3)ccc12` : is its EC50 strictly below 80 nM?
stdout: yes (1)

stdin: Is it true that EC50 reported for `COC(=O)c1cccc(COc2c(-c3ccc(OCCOCCn4cc(CN(C)CCN(C)Cc5cn(CCOCCOc6ccc(-c7oc8ccccc8c(=O)c7OCc7cccc(C(=O)OC)c7)cc6)nn5)nn4)cc3)oc3ccccc3c2=O)c1` is less than 80 nM?
stdout: no (0)

stdin: Here's an entry: `OCCOCCn1cc(CN(Cc2ccccc2)Cc2cn(CCOCCO)nn2)nn1` . Is its EC50 below 80 nM?
stdout: no (0)

stdin: Lab note: confirm whether the reported EC50 for this compound is below 80 nM, equality not counting. compound: `COC(=O)c1cccc(COc2c(-c3ccc(OCCOCCn4cc(-c5cccc(-c6cn(CCOCCOc7ccc(-c8oc9ccccc9c(=O)c8OCc8cccc(C(=O)OC)c8)cc7)nn6)c5)nn4)cc3)oc3ccccc3c2=O)c1`
stdout: yes (1)

stdin: Report whether reported EC50 is lower than 80 nM (strictly) for `Cc1ccc2oc(-c3ccc(OCCCCc4cn(CCOCCOCCOc5ccc(-c6cc(=O)c7cc(C)ccc7o6)cc5)nn4)cc3)cc(=O)c2c1`
stdout: no (0)

stdin: Input `O=c1cc(-c2ccc(OCCOCCOCCn3cc(CN(CCOc4ccc5c(=O)cc(-c6ccccc6)oc5c4)Cc4ccccc4)nn3)cc2)oc2ccccc12` ; condition: EC50 strictly below 80 nM. Does it hold?
stdout: yes (1)

stdin: Report whether reported EC50 is lower than 80 nM (strictly) for `COC(=O)c1cccc(COc2c(-c3ccc(OCCOCCn4cc(-c5ccc(-c6cn(CCOCCOc7ccc(-c8oc9ccccc9c(=O)c8OCc8cccc(C(=O)OC)c8)cc7)nn6)cc5)nn4)cc3)oc3ccccc3c2=O)c1`
stdout: yes (1)

stdin: Given the entry `COC(=O)c1cccc(COc2c(-c3ccc(OCCOCCn4cc(CN(Cc5ccccc5)Cc5cn(CCOCCOc6ccc(-c7oc8ccccc8c(=O)c7OCc7cccc(C(=O)OC)c7)cc6)nn5)nn4)cc3)oc3ccccc3c2=O)c1` , would its reported EC50 be below 80 nM?
stdout: yes (1)

stdin: In plain terms, does `O=c1cc(-c2ccc(OCCOCCn3cc(CN(Cc4ccccc4)Cc4cn(CCOCCOc5ccc(-c6cc(=O)c7ccccc7o6)cc5)nn4)nn3)cc2)oc2ccccc12` come in under 80 nM for EC50?
stdout: no (0)

---

Test: Inhibition of P-gp (unknown origin) expressed in human LCC6MDR cells assessed as reversal of paclitaxel resistance after 5 days by MTS/PMS assay
Listed here: items and their measured EC50.
Record the value in nM, omitting the unit from your answer.

Record summary for `COC(=O)c1cccc(COc2c(-c3ccc(OCCOCCn4cc(CCCOc5ccc(-c6cc(=O)c7ccc(F)cc7o6)cc5)nn4)cc3)oc3ccccc3c2=O)c1` : reported EC50 = 481

The measured EC50 associated with `O=c1cc(-c2ccccc2)oc2cc(OCCN(Cc3ccccc3)Cc3cn(CCOCCOCCOc4ccc(-c5oc6ccccc6c(=O)c5OCc5ccccc5)cc4)nn3)ccc12` reads 983

Briefly, EC50 measured for `COC(=O)c1cccc(COc2c(-c3ccc(OCCOCCOCCn4cc(CCCOc5ccc6c(=O)cc(-c7ccccc7)oc6c5)nn4)cc3)oc3ccccc3c2=O)c1` : 414

The compound listed as `O=c1cc(-c2ccccc2)oc2cc(OCCCCc3cn(CCOCCOCCOc4ccc5c(=O)cc(-c6ccccc6)oc5c4)nn3)ccc12` shows EC50 equal to 288

response.value for `Cc1ccc2oc(-c3ccc(OCCOCCOCCn4cc(CN(Cc5ccccc5)Cc5cn(CCOCCOCCOc6ccc(-c7cc(=O)c8cc(C)ccc8o7)cc6)nn5)nn4)cc3)cc(=O)c2c1` (field: EC50) = 763

---

Experiment: Inhibition of P-gp (unknown origin) expressed in human LCC6MDR cells assessed as reversal of paclitaxel resistance after 5 days by MTS/PMS assay
pEC50: −log10 of the molar value.
measured.property: pEC50

Study these solved cases before continuing.
structure.notation | test.result
COC(=O)c1cccc(COc2c(-c3ccc(OCCOCCn4cc(CN(Cc5cn(CCOCCOc6ccc(-c7oc8ccccc8c(=O)c7OCc7cccc(C(=O)OC)c7)cc6)nn5)c5ccccc5)nn4)cc3)oc3ccccc3c2=O)c1 | < 6.00
COC(=O)c1cccc(COc2c(-c3ccc(OCCOCCn4cc(CN(C)CCN(C)Cc5cn(CCOCCOc6ccc(-c7oc8ccccc8c(=O)c7OCc7cccc(C(=O)OC)c7)cc6)nn5)nn4)cc3)oc3ccccc3c2=O)c1 | < 6.00

Moving on to another compound below.
GET /value?item= `COC(=O)c1cccc(COc2c(-c3ccc(OCCOCCn4cc(CCCc5cn(CCOCCOc6ccc(-c7oc8ccccc8c(=O)c7OCc7cccc(C(=O)OC)c7)cc6)nn5)nn4)cc3)oc3ccccc3c2=O)c1` &field=pEC50 returns < 6.00
